# credit: PubChem BioAssay (NCI)

tested on: T-47D breast; experiment: NCI tumour cell line growth inhibition, 48 h; in the data active = GI50 below about 0.43 µM; inactive = the rest
API: response.call in active, inactive

Some solved entries appear below for comparison.
>  <Compound>
O=C(CC(Cl)=C(Cl)Cl)c1cccc(Cl)c1Cl

>  <Assigned Category>
inactive

$$$$
>  <Compound>
CCOC(=O)c1cnc2c(C)cccc2c1Nc1ccc(C(C)=O)cc1

>  <Assigned Category>
inactive

$$$$
>  <Compound>
NC(=S)c1c(N)n(C2OC(CO)C(O)C2O)c2ncnc(N)c12 (centres undefined)

>  <Assigned Category>
active

$$$$
>  <Compound>
CC[C@H](C)[C@H](NC(=O)CN(C)C)C(=O)N(C)[C@H](C[C@@H](OC(C)=O)c1nc(C(=O)NC23CC(C(=O)OC)(C2)C3)cs1)C(C)C

>  <Assigned Category>
inactive

$$$$

Query: Dear all, I need the recorded test outcome for O=C(CN1C(=O)S/C(=C\C(Cl)=C\c2ccccc2)C1=O)NC1C=CS(=O)(=O)C1 (centres undefined) , thank you.
Response: inactive

Query: Please let me know the test result on file for N=c1c2c(=N)n3c(nc2nc2n1-c1ccccc1Sc1ccccc1-2)sc1cc(Cl)ccc13 .
Response: inactive

Query: recorded result category for CN1C(=O)C2(c3ccccc31)N(c1ccc(Cl)cc1)C(=O)C2(c1ccccc1)c1ccccc1 (centres undefined) in this test
Response: inactive

Query: Assay result, entry CC(=O)[O][Hg][c]1c(C)c(C)cc(C)c1C — outcome?
Response: inactive

Query: Recorded test call requested for C#CCOc1ccc2ncnc(Nc3ccc(NC(=O)C=C)cc3)c2c1
Response: inactive

Query: Recorded test outcome, item CC1=C(Nc2ccc(N3CCN(C)CC3)cc2)C(=O)c2cncnc2C1=O
Response: inactive

Query: Dear colleague, could you share the recorded outcome for COc1cc(-c2nn(-c3cccc(NC(=O)c4ccc(Cl)c(C(F)(F)F)c4)c3)cc2-c2ccncc2)ccc1Cl when you have a moment?
Response: inactive

Query: Which outcome did this test record for the compound O=C1Cc2cc(C(=O)NC3C[C@H]4CC[C@@H](C3)N4S(=O)(=O)CC3CCN(CCCC(F)(F)F)CC3)c(Cl)cc2N1 (some centres undefined) ?
Response: inactive

Query: Just curious, what result did O=C(Nc1nc2ccccc2s1)Nc1ccc([N+](=O)[O-])cc1Cl get here?
Response: inactive

Query: What was the test verdict on CO[C@H]1C[C@@H]2CC[C@@H](C)[C@@](O)(O2)C(=O)C(=O)N2CCCC[C@H]2C(=O)O[C@H]([C@H](C)C[C@@H]2CC[C@@H](OCCO)[C@H](OC)C2)CC(=O)[C@H](C)C=C(C)[C@@H](O)[C@@H](OC)C(=O)[C@H](C)C[C@H](C)/C=C/C=C/C=C1C ?
Response: active
